Origin of values: patent US9657018B2

Let's look at some compounds and their measured Kb.
test.target: human prostanoid EP4 receptor (Homo sapiens, UniProt P35408)
Construct: expressed in transfected cells
Sequence (P35408 whole entry): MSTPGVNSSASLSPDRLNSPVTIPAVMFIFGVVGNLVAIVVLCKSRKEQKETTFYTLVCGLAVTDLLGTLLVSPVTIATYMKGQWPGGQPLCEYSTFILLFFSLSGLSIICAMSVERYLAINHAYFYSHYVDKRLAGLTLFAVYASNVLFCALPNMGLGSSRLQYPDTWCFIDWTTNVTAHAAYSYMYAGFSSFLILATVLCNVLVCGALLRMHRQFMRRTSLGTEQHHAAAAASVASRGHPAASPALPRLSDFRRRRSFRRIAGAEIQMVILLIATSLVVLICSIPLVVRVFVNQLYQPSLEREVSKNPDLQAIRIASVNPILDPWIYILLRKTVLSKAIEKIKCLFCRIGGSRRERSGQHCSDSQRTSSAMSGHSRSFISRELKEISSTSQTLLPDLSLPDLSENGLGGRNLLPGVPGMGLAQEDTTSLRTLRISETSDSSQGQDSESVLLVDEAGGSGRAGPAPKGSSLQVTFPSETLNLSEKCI
assay.method.text: FLIPR Ca2+ signaling antagonist assay, EP4 receptor stable cell line
Type: cell-based
settings: human recombinant EP4 + chimeric Gqs in HEK-293 EBNA cells; standard agonist PGE2; NA = no antagonism or Kb>=10,000 nM
Number in nM, nothing else.

Below, 4 compounds whose answers are already recorded.
CC(C)Cn1ncc2cc(Br)cc(Cn3ncc4cc(C(=O)O)ccc43)c21 :: 22
CC(C)Cn1ncc2cc(Cl)cc(Cc3ncc4cc(C(=O)O)ccn34)c21 :: 200
CC(C)Cn1ncc2cc(Cl)cc(Cn3ncc4cc(C(=O)O)ccc43)c21 :: 24
CC(C)Cn1ncc2cc(Cl)cc(Cn3ncc4cc(C(=O)O)cnc43)c21 :: 90

The compound identified as CCCn1ncc2cc(Cl)cc(Cn3ncc4cc(C(=O)O)ccc43)c21 registered its Kb at 130

Short answer for CC(C)n1ncc2cc(Br)cc(Cn3ncc4cc(C(=O)O)ccc43)c21 : Kb was 330

The compound listed as CNc1nn(Cc2cc(Cl)cc3cnn(CC(C)C)c23)c2ccc(C(=O)O)cc12 shows Kb equal to 1

Entry CC(C)Cn1ncc2cc(Cl)cc(Cn3cnc4cc(C(=O)O)cnc43)c21 — recorded Kb = 280

For CCC(CC)Cn1ncc2cc(Br)cc(Cn3ncc4cc(C(=O)O)ccc43)c21 the compound record lists Kb as 1700

Documented Kb of CC(C)Cn1ncc2cc(F)cc(Cn3ncc4cc(C(=O)O)ccc43)c21 : 100
